# key: entry, value: EC50
# target.desc: SARS-CoV-2 RBD (SARS-CoV-2, UniProt P0DTC2)
# procedure.details: ELISA
Answer in ng/mL, number only, no unit symbol.

[Q] Fill in the blank: the reported EC50 of C128 (antibody, V domains shown) VH: EVQLLESGGGLVQPGGSLRLSCAASGFTFSTYAMSWVRQAPGKGLEWVSTITGSGRDTYYADSVKGRFTISRDNSKNTLFLQLNSLRAEDAAVYSCANHPLASGDDYYHYYMDVWGKGTTVTVSS VL: EIVLTQSPGTLSLSPGERATLSCRASQSVNSRQLAWYQQKPGQAPRLLIYGASSRATGIPERFSGSGSGTDFTLTISRLESEDFAVYHCQQYGSSRALTFGGGTKVEIK is ____.
[A] 1.95

[Q] Fill in the blank: the reported EC50 of C144 (antibody, V domains shown) VH: EVQLVESGGGLIQPGGSLRLSCAASGFTVSNNYMSWVRQAPGKGLEWVSVIYSGGSTYYADSVKGRFTISRDKSKNTLYLQMNRLRAEDTAVYYCAREGEVEGYNDFWSGYSRDRYYFDYWGQGTLVTVSS VL: QSALTQPASVSGSPGQSITISCTGTSSDVGGYNYVSWYQQHPGKAPKLMIYDVSNRPSGVSNRFSGSKSGNTASLTISGLQAEDEADYYCSSYTSSSTRVFGTGTKVTVL is ____.
[A] 3.24
